Reference for the values: paper PMC7198766

tested on: ligated 6th instar Indian stick insects (Carausius morosus); test: Carbohydrate-mobilization (hypertrehalosemic) in vivo assay; settings: 90 min after injection of 20 pmol peptide in 10 μl; neck-ligated 6th instar nymphs
Listing: Hemolymph carbohydrates, 90 min of selected substances
MEASURED PARAMETER: Hemolymph carbohydrates, 90 min

{"SUBSTANCE": "pGlu-Leu-Thr-Phe-Thr-Pro-Asn-Trp*-Gly-Thr amide [Carmo-HrTH-I, endogenous hormone isolated from C. morosus CC; Trp^8 C-mannosylated, reference compound]", "MEASURED PARAMETER": "Hemolymph carbohydrates, 90 min", "OBSERVED MEASUREMENT": "12.9 ± 1.9 mg/mL"}
{"SUBSTANCE": "pGlu-Ala-Thr-Phe-Thr-Pro-Asn-Trp-Gly-Thr amide [Ala^2-Carmo-HrTH-II]", "MEASURED PARAMETER": "Hemolymph carbohydrates, 90 min", "OBSERVED MEASUREMENT": "16.8 ± 1.7 mg/mL"}
{"SUBSTANCE": "[N-Ac]Ala-Leu-Thr-Phe-Thr-Pro-Asn-Trp-Gly-Thr amide [Carmo-HrTH-II: [N-Ac]Ala^1]", "MEASURED PARAMETER": "Hemolymph carbohydrates, 90 min", "OBSERVED MEASUREMENT": "10.6 ± 2.0 mg/mL"}
{"SUBSTANCE": "pGlu-Leu-Thr-Phe-Thr-Pro-Ala-Trp-Gly-Thr amide [Ala^7-Carmo-HrTH-II]", "MEASURED PARAMETER": "Hemolymph carbohydrates, 90 min", "OBSERVED MEASUREMENT": "12.0 ± 2.2 mg/mL"}
{"SUBSTANCE": "pGlu-Val-Asn-Phe-Thr-Pro-Asn-Trp-Gly-Thr amide [Rommi-CC, naturally-occurring AKH decapeptide bioanalog, reference compound]", "MEASURED PARAMETER": "Hemolymph carbohydrates, 90 min", "OBSERVED MEASUREMENT": "10.6 ± 1.6 mg/mL"}
{"SUBSTANCE": "Leu-Thr-Phe-Thr-Pro-Asn-Trp-Gly-Thr amide", "MEASURED PARAMETER": "Hemolymph carbohydrates, 90 min", "OBSERVED MEASUREMENT": "9.5 ± 1.5 mg/mL"}
{"SUBSTANCE": "pGlu-Leu-Thr-Ala-Thr-Pro-Asn-Trp-Gly-Thr amide [Ala^4-Carmo-HrTH-II]", "MEASURED PARAMETER": "Hemolymph carbohydrates, 90 min", "OBSERVED MEASUREMENT": "9.1 ± 2.4 mg/mL"}
